test: growth effects on S. cerevisiae YJM789 – YJM789 clinical isolate, OD600, 24 h, basal, primary screen (AID 1089); conditions: higher = more signal, called active from +8 up or from −8 down;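 further: growth of clinical yeast isolate S. cerevisiae YJM 789 seeded 1000 cells per well; test concentration not given here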
molecules and their reported z-score
Write no unit; give the number alone.

Below: 5 molecules and their reported z-score.
Cc1ccc(S[C@]2(C(=O)O)CC(=O)N(C3CCCCC3)[C@@H]2c2ccc(CO)cc2)cc1 | 0.316
COc1cc2c(cc1OC)CN(C(=O)[C@@H]1[C@H]3C(=O)O[C@H](c4ccccc4)[C@H](c4ccccc4)N3[C@H](c3ccc(OCCO)cc3)[C@@]13C(=O)Nc1ccc(C#CCCO)cc13)CC2 | 1.68
C[N+](C)(C)CCCCCCNC(=O)[C@@H]1C[C@@H]2C(=O)NCC(=O)N2[C@@H]1c1cccc(OCCO)c1 | -0.947
COCC1=C([C@H](O)CCc2ccccc2)[C@H](CO)[C@@H]2C(=O)N(C)C(=O)[C@@H]2C1 | 0.119
C[N+](C)(C)CCCCCCNC(=O)[C@H]1C[C@H]2C(=O)N3CCC[C@H]3C(=O)N2[C@H]1c1cccc(OCCO)c1 | -0.811

Exam item: Given the molecule CC(C)N1CC=CC23O[C@@H]4C=CCOC(=O)[C@@H]4[C@H]2C(=O)N(CCCCCCO)[C@@H]3C1=O (some centres not stated) , what is its reported z-score?
Marked response: -0.976

Exam item: Given the molecule "COC(=O)C(CC#Cc1ccc2c(c1)[C@]1(C(=O)N2)[C@H](C(=O)N2CCc3cc(OC)c(OC)cc3C2)[C@H]2C(=O)O[C@H](c3ccccc3)[C@H](c3ccccc3)N2[C@@H]1c1ccc(OCCO)cc1)C(=O)OC" , what is its reported z-score?
Marked response: 3.22

Exam item: Given the molecule "C=CCOC(=O)[C@@H]1[C@H]2C(=O)O[C@H](c3ccccc3)[C@H](c3ccccc3)N2[C@H](c2ccc(OCCOC(=O)[C@@H]3C[C@@H]4C(=O)N[C@@H](CCCCNC(C)=O)C(=O)N4[C@@H]3c3ccc(O)cc3)cc2)[C@@]12C(=O)Nc1ccc(I)cc12" , what is its reported z-score?
Marked response: 0.0797

Exam item: Given the molecule "COC(=O)[C@@]1(Cc2ccc(OC)cc2)[C@H]2c3cc(C(=O)N(C)C)n(Cc4cc(C)n(C)n4)c3C[C@H]2CN1C(=O)c1ccccc1" , what is its reported z-score?
Marked response: 0.296

Exam item: Given the molecule "O=C1O[C@H](c2ccccc2)[C@H](c2ccccc2)N2[C@H]1[C@@H](C(=O)NC[C@H](O)c1ccccc1)[C@]1(C(=O)Nc3ccccc31)[C@H]2c1ccccc1OCCO" , what is its reported z-score?
Marked response: 0.837

Exam item: Given the molecule "COc1ccc([Si](C)(C)[C@H]2[C@H](CCn3cc(CCO)nn3)O[C@@]3(C(=O)N(Cc4cccc(N5C(=O)c6cccc7cccc5c67)c4)c4ccccc43)[C@@H]2C)cc1" , what is its reported z-score?
Marked response: 0.502

Exam item: Given the molecule "O=C1O[C@H](c2ccccc2)[C@H](c2ccccc2)N2[C@H]1[C@@H](C(=O)N1CCN(c3ncccn3)CC1)[C@]1(C(=O)Nc3ccc(C#CCCO)cc31)[C@H]2c1ccc(OCCO)cc1" , what is its reported z-score?
Marked response: 0.987

====

compounds and their reported z-score
assay: growth of efflux-deficient E. coli DRC39 – strain DRC39, OD650, 24 h, E. coli filamentation inducers, primary screen (AID 1178);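 further: growth measured as culture turbidity by optical density at 650 nm; test concentration not given here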; details: E. coli DRC39 acrAB, higher = more signal, called active from +8 up or from −8 down
Write no unit; give the number alone.

COC(=O)[C@@]1(Cc2ccccc2)[C@H]2c3cc(C(=O)N4CCCC4)n(Cc4ccccc4)c3C[C@H]2CN1C(=O)c1ccccc1 | -0.78
COC(=O)[C@]1(Cc2ccccc2N=[N+]=[N-])N=C(c2ccc(OCCCO)cc2)O[C@@H]1c1ccccc1 | 2.06
O=C1NC(=O)C2C1C=CC(C(O)CCc1ccccc1)N2Nc1ccccn1 (stereo not given) | 0.696
COCCOC(=O)N1C(=O)[C@@]2(c3cc(C#Cc4ccc(OC)cc4)ccc31)[C@H](C(N)=O)[C@H]1C(=O)O[C@H](c3ccccc3)[C@H](c3ccccc3)N1[C@@H]2c1ccc(OCCO)cc1 | -0.315
[N-]=[N+]=NCc1ccccc1C[C@]1(C(=O)NCCN2CCOCC2)COC(c2ccc(OCCCO)cc2)=N1 | 0.786
[N-]=[N+]=NCc1ccccc1[C@H]1OC(c2ccc(OCCCO)cc2)=N[C@@]1(Cc1ccccc1N=[N+]=[N-])C(=O)N1CCCCC1 | -0.457
CCCCCCC#C[Si](O[C@H](c1ccccc1)c1cn(Cc2cccc(Cl)c2)nn1)(C(C)C)C(C)C | 0.804
CCCC[C@@H](O)C1=C(COc2ccccc2)Cn2c(=O)n(-c3ccccc3)c(=O)n2[C@H]1CO | 1.36

Exam item: Given the compound CC(C)C(CO)N1C(=O)[C@@H]2[C@H]3C(=O)OCC=C[C@H]3OC23C=CCN(Cn2nnc4ccccc42)C(=O)[C@@H]13 (stereo not given in full) , what is its reported z-score?
Marked response: -0.497

Exam item: Given the compound "C=CC[C@@]1(C(=O)NCCN2CCOCC2)N=C(c2ccc(OCCCO)cc2)O[C@@H]1c1ccccc1" , what is its reported z-score?
Marked response: 0.297
